targetDesc: RUNX1 (UniProt Q01196)
Sequence (Q01196 whole entry): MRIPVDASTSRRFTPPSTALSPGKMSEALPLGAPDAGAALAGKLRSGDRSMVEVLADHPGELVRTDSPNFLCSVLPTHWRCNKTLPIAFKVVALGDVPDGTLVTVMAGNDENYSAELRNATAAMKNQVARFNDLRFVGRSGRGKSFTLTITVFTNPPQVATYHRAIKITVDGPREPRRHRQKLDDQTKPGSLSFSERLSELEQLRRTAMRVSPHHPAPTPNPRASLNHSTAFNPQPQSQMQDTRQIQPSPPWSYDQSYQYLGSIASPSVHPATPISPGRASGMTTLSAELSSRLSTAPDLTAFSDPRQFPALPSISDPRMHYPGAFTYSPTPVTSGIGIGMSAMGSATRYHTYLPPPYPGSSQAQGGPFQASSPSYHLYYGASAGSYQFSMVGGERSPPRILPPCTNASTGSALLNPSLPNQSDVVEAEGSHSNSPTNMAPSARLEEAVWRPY
protocolDetails: RUNX1 binding intensity (PBM fluorescence) in presence of ETS1, normalised to RUNX1-only experiment (arbitrary fluorescence units); higher = stronger binding;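 note: Full-length recombinant human ETS1 or RUNX1 bound to double-stranded 36-bp genomic probes on microarrays, detected by protein-specific primary antibody and Alexa488 secondary, spot fluorescence as median of four replicate spots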
conditionNotes: RUNX1 concentration 2 nM; ETS1 concentration 25 nM
valueType: RUNX1 binding intensity
// return a plain number; no unit text

Hello, please tell me recorded RUNX1 binding intensity for this one: `GAGTCTACAGCGGAAGCCACCACATGCCCCACCCCC`
1200

Hello, please tell me recorded RUNX1 binding intensity for this one: `TGTCTCATTTCCTGTAGGTAACAGGCACCACAATAG`
1780

Hello, please tell me recorded RUNX1 binding intensity for this one: `CCGCTGACATCCGCTTGGCCTGCGGCTTCTTTCTGT`
2740

Hello, please tell me recorded RUNX1 binding intensity for this one: `CATAGACCGGATGCCTCGTCAACCACAGAAACCAAT`
2940

Hello, please tell me recorded RUNX1 binding intensity for this one: `GCCCGGAAGCGCGACGCTGGAGCTGCGGGGTTACCA`
882

Hello, please tell me recorded RUNX1 binding intensity for this one: `TTATGCCTCAGGATGAACGAACCTCAAACACCCAGG`
858

Hello, please tell me recorded RUNX1 binding intensity for this one: `TTGGCTTTGTGTTTCCGCGGTGTTGGTAGAGTCTCG`
980

Hello, please tell me recorded RUNX1 binding intensity for this one: `CTAACCCTGCTTCCTCTTAGTGGTTTCCCCCAACCT`
3220

Hello, please tell me recorded RUNX1 binding intensity for this one: `TATTTCCTGTGCACAGAAGCAGCTGGGCCGCAGAGT`
1940

Hello, please tell me recorded RUNX1 binding intensity for this one: `GTTGCAGGAAACGATGGGTTTTGTGGTATGAACTGC`
1700

Hello, please tell me recorded RUNX1 binding intensity for this one: `AGGGCATAAACAGGATGTGGTGTTGGATGAAACCTT`
1360

Hello, please tell me recorded RUNX1 binding intensity for this one: `GCAGAGAGGAGGGGATGTGGTTTCACAGCTTGCTCC`
937

Hello, please tell me recorded RUNX1 binding intensity for this one: `TCTGGGACAGGAAAGACTTGTGGTTACTGCTGTTGA`
3160

Hello, please tell me recorded RUNX1 binding intensity for this one: `AACTTAGCTTCCGGGAAGAAGGCGAGCGGTGGGAGG`
1400

Hello, please tell me recorded RUNX1 binding intensity for this one: `GCTCTTCACTTCCTGTGGCTCCCGCAGCGGCCGCCG`
2460

Hello, please tell me recorded RUNX1 binding intensity for this one: `ACGTCTGTTTCCTGTGATTGAAACCGCAAGAAGAAG`
18500

Hello, please tell me recorded RUNX1 binding intensity for this one: `GAAACAATTTCCTGTACCTCTGTGGTAAAAATGATA`
2610

Hello, please tell me recorded RUNX1 binding intensity for this one: `CAAATGAATAAAGGATGTGGTAAATTATTTTCTTCT`
1780

Hello, please tell me recorded RUNX1 binding intensity for this one: `AGAATCGCATCAGGATGTGGTGAGGGAGCACATTTG`
969

Hello, please tell me recorded RUNX1 binding intensity for this one: `GACACGTCTTTGGAAGGATGTGGTTGCCGTGGGTTT`
880

Hello, please tell me recorded RUNX1 binding intensity for this one: `CAGAAAGAGGAAATGATGCGAGTCCACACCGCAGGC`
1170

Hello, please tell me recorded RUNX1 binding intensity for this one: `ACCCCAAGCCCAGGATGTGGTTTGGCCACTATTGAG`
2030

Hello, please tell me recorded RUNX1 binding intensity for this one: `GGGATCTACTTCCTCTCTCGGCCGCGGCCGCAGCAC`
1730

Hello, please tell me recorded RUNX1 binding intensity for this one: `CCACCCTCCGTCCGGCCGCGACCGCGAGGAGGAAGA`
1130

Hello, please tell me recorded RUNX1 binding intensity for this one: `ATACAGACACAGGAAGTTGTGGGGAGTGCAAAAGCC`
1530

Hello, please tell me recorded RUNX1 binding intensity for this one: `AACACCACTTCCTACTGTGAAACCACACTGTATTTG`
2980

Hello, please tell me recorded RUNX1 binding intensity for this one: `GCCTGAAGGACTTCCGGGAACCGCAAAGCACGGTGT`
3430

Hello, please tell me recorded RUNX1 binding intensity for this one: `CAGCTTTCCGGCCTGCAGCACAGGCAATGTGGTTTT`
2150

Hello, please tell me recorded RUNX1 binding intensity for this one: `AACAAAGAGAGAGGAAGTGGGTTGGGCGGGGGGGGT`
1040

Hello, please tell me recorded RUNX1 binding intensity for this one: `TTTGATTTCCTGTCTCCATGTTGTGGTCAAGATTGC`
4420

Hello, please tell me recorded RUNX1 binding intensity for this one: `GGTTTCCGGGTGAAAAAAAAAAAAAAAACCACGCCA`
1740

Hello, please tell me recorded RUNX1 binding intensity for this one: `CAAGCTGGCAGGAAGCGCGGTGCAACCACAAGAGTC`
1260

Hello, please tell me recorded RUNX1 binding intensity for this one: `TGACATGGCTTCCGCCTTGGGCTTTGTGGTCTCCCA`
1760

Hello, please tell me recorded RUNX1 binding intensity for this one: `ACAACCCGGAAGTTGGCGCAGCGCGGTTGCCAATGG`
1300

Hello, please tell me recorded RUNX1 binding intensity for this one: `GGCGGATGGGGAGAAGAGAGTGGCTGTGGTCTCTGG`
712

Hello, please tell me recorded RUNX1 binding intensity for this one: `CACCGCCGGAGTCCCGGATGTGGTTGCTAGGGCAGC`
3280

Hello, please tell me recorded RUNX1 binding intensity for this one: `CAAGCCAGGAAGAGGGCCCTCACCAGAAACCGCACT`
1150

Hello, please tell me recorded RUNX1 binding intensity for this one: `CTACAAACGGCTTCCTCCTGCCTAACCACAACCTCA`
5340

Hello, please tell me recorded RUNX1 binding intensity for this one: `TGAGCAAGTTCCTTCCTGTCTGTGGTCCAGGGTTTA`
1510

Hello, please tell me recorded RUNX1 binding intensity for this one: `CCTCACCCAGGAAGTGGCTGCGGCTGTCTCAGGGTT`
1440

Hello, please tell me recorded RUNX1 binding intensity for this one: `ATCTCAACTAGGAAATGTTTTTGTGACCACAAAGGG`
949

Hello, please tell me recorded RUNX1 binding intensity for this one: `GCGAAAAACGCGGAAATGCGGTGGCGGCGGCCCGCT`
1210

Hello, please tell me recorded RUNX1 binding intensity for this one: `CTCTGGCAGGAAGCTCTGAGGGCTAAACCACAAAAA`
1820

Hello, please tell me recorded RUNX1 binding intensity for this one: `CCACCATCTTTCCGGCTCCCTCGCGACCACCACGAC`
1970

Hello, please tell me recorded RUNX1 binding intensity for this one: `TATGGCGGGCAGGAAGTGCGGGTGCGCGCCTGCGCA`
1360

Hello, please tell me recorded RUNX1 binding intensity for this one: `GATGCTCTAACAGGAAGTGGGTTAAGGAGCTGCACT`
2390

Hello, please tell me recorded RUNX1 binding intensity for this one: `GCCCCGGAAGCTCCTTAAGGAGGACCGTGTGGGTTT`
944

Hello, please tell me recorded RUNX1 binding intensity for this one: `CCTTTACTTCCTTTTACTTCTAACCACAGAATTAAA`
14200

Hello, please tell me recorded RUNX1 binding intensity for this one: `TTGAATATGAAAGGAAGTGGTTAGGTGATGTGTTCT`
1350

Hello, please tell me recorded RUNX1 binding intensity for this one: `TGTCTCTGCCGCCGGAAACCGCGCCGTAGATCATGC`
1420
